Recorded disease control rating, CURS for the following molecules
test system: Rhizoctonia solani; assay: Control of soil borne diseases, Cucumber damping-off by Rhizoctonia (CURS); assay type: in vivo; conditions: 2.5 kg/ha soil drench; 14-18 days after treatment; further: ranges in brackets are in %
Result type: disease control rating, CURS

| Substance smiles | Assayed target | Result type | Result |
| --- | --- | --- | --- |
| CN(O)C(=S)C(=O)C(C)(C)C | Rhizoctonia solani | disease control rating, CURS | 2 (15-25) |
| CN([O-])C(=S)C(=O)C(C)(C)C.CN([O-])C(=S)C(=O)C(C)(C)C.[Zn+2] | Rhizoctonia solani | disease control rating, CURS | 4 (45-55) |
| CN([O-])C(=S)C(=O)C(C)(C)C.CN([O-])C(=S)C(=O)C(C)(C)C.[Cu+2] | Rhizoctonia solani | disease control rating, CURS | 5 (60-70) |
| CN([O-])C(=S)C(=O)C(C)(C)C.CN([O-])C(=S)C(=O)C(C)(C)C.CN([O-])C(=S)C(=O)C(C)(C)C.[Fe+3] | Rhizoctonia solani | disease control rating, CURS | 4 (45-55) |

----------
tested on: Rhizoctonia solani; assay: Control of soil borne diseases, Cucumber damping-off by Rhizoctonia (CURS); assay type: in vivo; details: 5.0 kg/ha soil drench; 14-18 days after treatment; further: ranges in brackets are in %
Recorded disease control rating, CURS for the following compounds

| Substance smiles | Assayed target | disease control rating, CURS |
| --- | --- | --- |
| CN([O-])C(=S)C(=O)C(C)(C)C.CN([O-])C(=S)C(=O)C(C)(C)C.[Zn+2] | Rhizoctonia solani | 6 (75-85) |
| CN(O)C(=S)C(=O)C(C)(C)C | Rhizoctonia solani | 5 (60-70) |
| CN([O-])C(=S)C(=O)C(C)(C)C.CN([O-])C(=S)C(=O)C(C)(C)C.[Cu+2] | Rhizoctonia solani | 6 (75-85) |
| CN([O-])C(=S)C(=O)C(C)(C)C.CN([O-])C(=S)C(=O)C(C)(C)C.CN([O-])C(=S)C(=O)C(C)(C)C.[Fe+3] | Rhizoctonia solani | 6 (75-85) |

----------
Recorded disease control rating, WPM for the following molecules
test system: Erysiphe graminis f. sp. tritici; assay: In vivo fungicidal evaluation, Wheat Powdery Mildew (WPM); conditions: 200 ppm, plants sprayed before inoculation

| Substance smiles | disease control rating, WPM |
| --- | --- |
| C=CC(=O)ON(C)C(=S)C(=O)C(C)(C)C | 0.0 |
| CN(OC(=O)c1ccc(Cl)cc1)C(=S)C(=O)C(C)(C)C | 3.0 |
| CC(C)(C)C(=O)C(=S)N(O)C1CCCC1 | 0.0 |
| CN([O-])C(=S)C(=O)C12CC3CC(CC(C3)C1)C2.CN([O-])C(=S)C(=O)C12CC3CC(CC(C3)C1)C2.[Cu+2] | 0.0 |
| CN(O)C(=S)C(=O)C(C)(C)C | 6.3 |
| CC(C)(C)C(=O)C(=S)N([O-])C1CCCC1.CC(C)(C)C(=O)C(=S)N([O-])C1CCCC1.CC(C)(C)C(=O)C(=S)N([O-])C1CCCC1.[Fe+3] | 0.0 |
| CN(O)C(=S)C(=O)C12CC3CC(CC(C3)C1)C2 | 0.0 |
| COC(=O)ON(C)C(=S)C(=O)C(C)(C)C | 0.0 |
| CC(C)N([O-])C(=S)C(=O)C(C)(C)C.CC(C)N([O-])C(=S)C(=O)C(C)(C)C.[Zn+2] | 0.0 |
| CN(O)C(=S)C(=O)C(C)(C)C.CN(O)C(=S)C(=O)C(C)(C)C.[Mn+2] | 7.0 |
| CN([O-])C(=S)C(=O)C(C)(C)C.CN([O-])C(=S)C(=O)C(C)(C)C.[Cu+2] | 5.0 |
| CN([O-])C(=S)C(=O)C(C)(C)C.CN([O-])C(=S)C(=O)C(C)(C)C.CN([O-])C(=S)C(=O)C(C)(C)C.[Fe+3] | 5.5 |
| CC(=O)ON(C)C(=S)C(=O)C(C)(C)C | 0.0 |
| CC(C)(C)C(=O)C(=S)N(O)C1CCCC1.CC(C)(C)C(=O)C(=S)N(O)C1CCCC1.[Zn+2] | 0.0 |
| CC(C)(C)C(=O)C(=S)N([O-])Cc1ccccc1.CC(C)(C)C(=O)C(=S)N([O-])Cc1ccccc1.[Zn+2] | 0.0 |
| CC(C)(C)C(=O)C(=S)N([O-])C1CCCC1.CC(C)(C)C(=O)C(=S)N([O-])C1CCCC1.[Cu+2] | 0.0 |
| CN([O-])C(=S)C(=O)C(C)(C)C.CN([O-])C(=S)C(=O)C(C)(C)C.[Zn+2] | 3.0 |

----------
Recorded disease control rating, CUFO for the following compounds
test system: Fusarium oxysporium f. sp. cucumerinum; test: Control of soil borne diseases, Cucumber Fusarium Wilt (CUFO); assay type: in vivo; conditions: 5.0 kg/ha soil drench; 14-18 days after treatment; further: ranges in brackets are in %

| Substance smiles | disease control rating, CUFO |
| --- | --- |
| CN([O-])C(=S)C(=O)C(C)(C)C.CN([O-])C(=S)C(=O)C(C)(C)C.[Zn+2] | 1 (5-10) |
| CN([O-])C(=S)C(=O)C(C)(C)C.CN([O-])C(=S)C(=O)C(C)(C)C.CN([O-])C(=S)C(=O)C(C)(C)C.[Fe+3] | 2 (15-25) |
| CN(O)C(=S)C(=O)C(C)(C)C | 0 (0) |
| CN([O-])C(=S)C(=O)C(C)(C)C.CN([O-])C(=S)C(=O)C(C)(C)C.[Cu+2] | 5 (60-70) |

----------
system: Rhizoctonia solani; experiment: In vitro fungicidal evaluation, growth inhibition (RHIZSO); assay type: cell-based; set-up: scale not given here; conditions: 25 ppm, 3-4 days at 21° C.
Recorded growth inhibition rating, RHIZSO for the following compounds
Result type: growth inhibition rating, RHIZSO

| Substance smiles | Result type | Quantitative result |
| --- | --- | --- |
| CN(O)C(=S)C(=O)C(C)(C)C.CN(O)C(=S)C(=O)C(C)(C)C.[Mn+2] | growth inhibition rating, RHIZSO | 4.5 |
| CC(C)(C)C(=O)C(=S)N([O-])Cc1ccccc1.CC(C)(C)C(=O)C(=S)N([O-])Cc1ccccc1.[Cu+2] | growth inhibition rating, RHIZSO | 1.5 |
| CN(OC(=O)c1ccc(Cl)cc1)C(=S)C(=O)C(C)(C)C | growth inhibition rating, RHIZSO | 0.0 |
| CN([O-])C(=S)C(=O)C(C)(C)C.CN([O-])C(=S)C(=O)C(C)(C)C.[Zn+2] | growth inhibition rating, RHIZSO | 4.5 |
| CC(C)(C)C(=O)C(=S)N(O)C1CCCC1.CC(C)(C)C(=O)C(=S)N(O)C1CCCC1.[Zn+2] | growth inhibition rating, RHIZSO | 3.3 |
| C=CC(=O)ON(C)C(=S)C(=O)C(C)(C)C | growth inhibition rating, RHIZSO | 0.0 |
| CN(O)C(=S)C(=O)C(C)(C)C | growth inhibition rating, RHIZSO | 6.0 |
| CN(O)C(=S)C(=O)C12CC3CC(CC(C3)C1)C2 | growth inhibition rating, RHIZSO | 1.0 |
| CC(C)(C)C(=O)C(=S)N([O-])C1CCCC1.CC(C)(C)C(=O)C(=S)N([O-])C1CCCC1.[Cu+2] | growth inhibition rating, RHIZSO | 0.0 |
| COC(=O)ON(C)C(=S)C(=O)C(C)(C)C | growth inhibition rating, RHIZSO | 0.0 |

----------
Test system: Pythium aphanidermantum
Assay: Control of soil borne diseases, Cucumber damping-off by Pythium (CUPA); further: ranges in brackets are in %
Assay type: in vivo
Settings: 2.5 kg/ha soil drench; 14-18 days after treatment
Protocol: Pasturized soil (100 mL) is added to 6 cm diameter plastic cups without drainage holes and covered with pathogen contaminated soil (30 mL). Ten germinated cucumber seeds are planted on the contaminated soil and the seeds are covered with pasteurized soil (20 mL). Test compounds are dissolved in acetone, diluted with deionized water containing about 0.05% TWEEN 20®, and applied to the pots by drenching the soil surface with 15 mL of test solution. […]
Recorded disease control rating, CUPA for the following molecules

| Substance smiles | Assayed target | disease control rating, CUPA |
| --- | --- | --- |
| CN([O-])C(=S)C(=O)C(C)(C)C.CN([O-])C(=S)C(=O)C(C)(C)C.CN([O-])C(=S)C(=O)C(C)(C)C.[Fe+3] | Pythium aphanidermantum | 0 (0) |
| CN([O-])C(=S)C(=O)C(C)(C)C.CN([O-])C(=S)C(=O)C(C)(C)C.[Zn+2] | Pythium aphanidermantum | 0 (0) |
| CN(O)C(=S)C(=O)C(C)(C)C | Pythium aphanidermantum | 2 (15-25) |
| CN([O-])C(=S)C(=O)C(C)(C)C.CN([O-])C(=S)C(=O)C(C)(C)C.[Cu+2] | Pythium aphanidermantum | 1 (5-10) |
